Test system: primary cortico-hippocampal neuron cultures
Test: lactate dehydrogenase (LDH) activity assay in parallel neuron cultures
Details: primary screening; table sorted by Aβ1-42
Structures can show the parent of a compound that is named as a salt.
LDH (% of ctl) overview

- MOLECULE: "CCOC(=O)[C@H](CCc1ccccc1)N[C@@H](C)C(=O)N1[C@H](C(=O)O)C[C@@H]2CCC[C@@H]21"
  LDH (% of ctl): "96.4 % of ctl"
- MOLECULE: "CC[C@H]1CN2CC[C@H]1C[C@@H]2[C@@H](O)c1ccnc2ccc(OC)cc12 [Hydroquinidine]"
  LDH (% of ctl): "102.2 % of ctl"
- MOLECULE: "COc1ccc2c(c1OC)C(=O)O[C@H]2[C@@H]1c2cc3c(cc2CCN1C)OCO3 [1S,9R-Beta-HYDRASTINE]"
  LDH (% of ctl): "114.2 % of ctl"
- MOLECULE: "NS(=O)(=O)c1cc(C(=O)O)c(NCc2ccco2)cc1Cl [Furosemide]"
  LDH (% of ctl): "98.2 % of ctl"
- MOLECULE: "CCCC(=O)Nc1ccc(OCC(O)CNC(C)C)c(C(C)=O)c1 (stereo not shown) [Acebutolol Hydrochloride]"
  LDH (% of ctl): "107.6 % of ctl"
- MOLECULE: "CCC(=O)O[C@@H](O[P@](=O)(CCCCc1ccccc1)CC(=O)N1C[C@H](C2CCCCC2)C[C@H]1C(=O)O)C(C)C [Fosinopril Sodium]"
  LDH (% of ctl): "75.6 % of ctl"
- MOLECULE: "CC(C)(Sc1cc(C(C)(C)C)c(O)c(C(C)(C)C)c1)Sc1cc(C(C)(C)C)c(O)c(C(C)(C)C)c1"
  LDH (% of ctl): "109.3 % of ctl"

----------
Tested on: Aβ1-42
Test: Aβ1-42 content in conditioned medium of primary cortico-hippocampal neuron cultures from Tg2576 mice (ELISA; primary and secondary dose-response screening)
Format: cell-based, mouse
Conditions: Primary Screening, drug 100 μM; table sorted by Aβ1-40
Experimental: Potential Aβ-lowering activity was assessed for 150 commercially available cardiovascular drugs using primary cortico-hippocampal neuron cultures derived from embryonic Tg2576 (El 6). […] All cardiovascular reagents were obtained from MicroSource Discovery Systems Inc (Gaylordsville, Conn.). […] The influence of drug treatments in Aβ content in the conditioned medium in treated cultures was assessed by assessing steady state levels of Aβ1-40 and Aβ1-42 in the culture media 24 hours after treatment. […]
Counter-ions that a name gives are not always drawn.
MEASURED ENDPOINT: Ab1-42 (% of ctl)

- MOLECULE: "C[C@]12CC[C@H]3[C@@H](CC[C@]4(O)C[C@@H](O)CC[C@]34C=O)[C@@]1(O)CC[C@@H]2C1=CC(=O)OC1 [Strophanthidin]"
  TESTED ON: "Aβ1-42"
  RESULT: "88.6 % of ctl"
- MOLECULE: "NCCCCCC(=O)O [Aminocaproic Acid]"
  TESTED ON: "Aβ1-42"
  RESULT: "184.3 % of ctl"
- MOLECULE: "CO[C@H]1[C@H](O)[C@H](O[C@H]2CC[C@@]3(C)[C@H](CC[C@@H]4[C@@H]3CC[C@]3(C)[C@@H](C5=CC(=O)OC5)CC[C@]43O)C2)O[C@@H](C)[C@@H]1O [Neriifolin]"
  TESTED ON: "Aβ1-42"
  RESULT: "90.3 % of ctl"
- MOLECULE: "CCOc1ccccc1OCCN[C@H](C)Cc1ccc(OC)c(S(N)(=O)=O)c1.Cl [Tamsulosin Hydrchloride]"
  TESTED ON: "Aβ1-42"
  RESULT: "91.8 % of ctl"
- MOLECULE: "CC(C)c1c(C(=O)Nc2ccccc2)c(-c2ccccc2)c(-c2ccc(F)cc2)n1CC[C@@H](O)C[C@@H](O)CC(=O)[O-].CC(C)c1c(C(=O)Nc2ccccc2)c(-c2ccccc2)c(-c2ccc(F)cc2)n1CC[C@@H](O)C[C@@H](O)CC(=O)[O-].[Ca+2] [Atorvastatin Calcium]"
  TESTED ON: "Aβ1-42"
  RESULT: "76.9 % of ctl"
- MOLECULE: "CC(COc1ccccc1)N(CCCl)Cc1ccccc1 (centres unmarked) [Phenoxybenzamine Hydrochloride]"
  TESTED ON: "Aβ1-42"
  RESULT: "90.7 % of ctl"
- MOLECULE: "COc1ccc2c(c1OC)C(=O)O[C@H]2[C@@H]1c2cc3c(cc2CCN1C)OCO3 [1S,9R-Beta-HYDRASTINE]"
  TESTED ON: "Aβ1-42"
  RESULT: "123.6 % of ctl"
- MOLECULE: "C[C@H]1O[C@@H](O[C@H]2[C@@H](O)C[C@H](O[C@H]3[C@@H](O)C[C@H](O[C@H]4CC[C@@]5(C)[C@H](CC[C@@H]6[C@@H]5CC[C@]5(C)[C@@H](C7=CC(=O)OC7)CC[C@]65O)C4)O[C@@H]3C)O[C@@H]2C)C[C@H](O)[C@@H]1O [Digitoxin]"
  TESTED ON: "Aβ1-42"
  RESULT: "92.9 % of ctl"
- MOLECULE: "NC(N)=NC(=O)c1nc(Cl)c(N2CCCCCC2)nc1N [N,N-Hexamethyleneamiloride]"
  TESTED ON: "Aβ1-42"
  RESULT: "26.2 % of ctl"
- MOLECULE: "CC[C@H]1[C@@H]2C[C@H]3[C@@H]4N(C)c5ccccc5[C@]45C[C@@H]([C@H]2[C@H]5O)N3[C@@H]1O [Ajmaline]"
  TESTED ON: "Aβ1-42"
  RESULT: "103.3 % of ctl"
- MOLECULE: "CC[C@@H](C)C(=O)O[C@H]1[C@H](O)[C@H]2[C@@H](CN3C[C@@H](C)CC[C@H]3[C@@]2(C)O)[C@@H]2C[C@]34O[C@]5(O)[C@@H](OC(=O)[C@@](C)(O)CC)CC[C@@]3(C)[C@@H]5[C@@H](OC(C)=O)[C@@H](OC(C)=O)[C@H]4[C@@]21O [Protoveratrine A]"
  TESTED ON: "Aβ1-42"
  RESULT: "104.6 % of ctl"

----------
System: primary cortico-hippocampal neuron cultures
Assay: MTT in primary screening
Conditions: Primary Screening; table sorted by Aβ1-40
Counter-ions that a name gives are not always drawn.
Each entry below carries its reported MTT (% of ctl).

- MOLECULE: "CO[C@H]1[C@H](O)[C@H](O[C@H]2CC[C@@]3(C=O)[C@H](CC[C@@H]4[C@@H]3CC[C@]3(C)[C@@H](C5=CC(=O)OC5)CC[C@]43O)C2)O[C@@H](C)[C@@H]1O [Peruvoside]"
  MTT (% of ctl): "98.8 % of ctl"
- MOLECULE: "CC1Cc2ccccc2N1NC(=O)c1ccc(Cl)c(S(N)(=O)=O)c1 (stereo not shown) [Indapamide]"
  MTT (% of ctl): "104.2 % of ctl"
- MOLECULE: "COc1ccccc1N1CCN(CCCNc2cc(=O)n(C)c(=O)n2C)CC1"
  MTT (% of ctl): "103.4 % of ctl"
- MOLECULE: "C1CCC(C(CC2CCCCN2)C2CCCCC2)CC1 (stereo not shown) [Perhexiline Maleate]"
  MTT (% of ctl): "7.2 % of ctl"

----------
Each entry below lists one item and its recorded MTT (% of ctl) value.
Test system: primary cortico-hippocampal neuron cultures
Assay: MTT in primary screening
Conditions: primary screening; table sorted by Aβ1-42
Where a name gives a salt, the structure may show the parent alone.

- COMPOUND: "CC(CCc1ccccc1)NC(C)C(O)c1ccc(O)cc1 (centres unmarked) [Nylidrin Hydrochloride]"
  MTT (% of ctl): "79.7 % of ctl"
- COMPOUND: "CCN(CC)CCOC(=O)C(Cc1cccc2ccccc12)CC1CCCO1 (centres unmarked) [Nafronyl Oxalate]"
  MTT (% of ctl): "103.2 % of ctl"
- COMPOUND: "c1ccc(CC2=NCCN2)cc1 [Tolazoline Hydrochloride]"
  MTT (% of ctl): "97.5 % of ctl"
- COMPOUND: "CC(C)NCC(O)COc1ccc(CC(N)=O)cc1 (centres unmarked)"
  MTT (% of ctl): "97.3 % of ctl"
- COMPOUND: "COc1cc([S+](C)[O-])ccc1-c1nc2ncccc2[nH]1 (centres unmarked)"
  MTT (% of ctl): "115.0 % of ctl"
- COMPOUND: "COC(=O)C1=C(C)NC(C)=C(C(=O)OC)C1c1ccccc1[N+](=O)[O-]"
  MTT (% of ctl): "98.7 % of ctl"
- COMPOUND: "COc1cc2ccc(=O)oc2cc1O"
  MTT (% of ctl): "99.7 % of ctl"
- COMPOUND: "C[N+]1(CCCCC[N+]2(C)CCCC2)CCCC1 [Pentolinium Tartrate]"
  MTT (% of ctl): "103.8 % of ctl"
- COMPOUND: "COC(=O)C1=C(C)NC(C)=C(C(=O)OCCN(C)Cc2ccccc2)C1c1cccc([N+](=O)[O-])c1 (centres unmarked) [Nicardipine Hydrochloride]"
  MTT (% of ctl): "52.4 % of ctl"
- COMPOUND: "CC(N)CCCC(C)(C)O (centres unmarked) [Heptaminol Hydrochloride]"
  MTT (% of ctl): "103.4 % of ctl"
- COMPOUND: "COc1ccc2cc1Oc1ccc(cc1)C[C@H]1c3cc(c(OC)cc3CCN1C)Oc1c(OC)c(OC)cc3c1[C@H](C2)N(C)CC3"
  MTT (% of ctl): "112.5 % of ctl"
- COMPOUND: "C[C@H]1O[C@@H](O[C@H]2[C@@H](O)C[C@H](O[C@H]3[C@@H](O)C[C@H](O[C@H]4CC[C@@]5(C)[C@H](CC[C@@H]6[C@@H]5CC[C@]5(C)[C@@H](C7=CC(=O)OC7)CC[C@]65O)C4)O[C@@H]3C)O[C@@H]2C)C[C@H](O)[C@@H]1O"
  MTT (% of ctl): "86.0 % of ctl"
- COMPOUND: "CC(=O)CC(c1ccccc1)c1c(O)c2ccccc2oc1=O (centres unmarked)"
  MTT (% of ctl): "100.1 % of ctl"
- COMPOUND: "CCCCC1=NC2(CCCC2)C(=O)N1Cc1ccc(-c2ccccc2-c2nnn[nH]2)cc1"
  MTT (% of ctl): "98.9 % of ctl"
- COMPOUND: "CC(C)COCC(CN(Cc1ccccc1)c1ccccc1)N1CCCC1 (centres unmarked) [Bepridil Hydrochloride]"
  MTT (% of ctl): "77.1 % of ctl"
- COMPOUND: "NCCCCCC(=O)O"
  MTT (% of ctl): "80.3 % of ctl"
- COMPOUND: "CCCCCCCCNC(C)C(O)c1ccc(SC(C)C)cc1 (centres unmarked)"
  MTT (% of ctl): "77.7 % of ctl"
